Target: HLA-A*23:01
Experiment: IEDB peptide-MHC binding, purified MHC/competitive/radioactivity; filed as Kd, often an IC50 or EC50 that approximates it; bounds were set here for any values at or beyond the usual limits of such assays
Details: source organism: SARS coronavirus Tor2
Listed next: entries and their corresponding Kd.
quantity_kind: Kd

>  <biosequence>
IFFASFYYI

>  <measurement>
0.00645 µM

$$$$
>  <biosequence>
NSKVQIGEY

>  <measurement>
≥ 77.8 µM

$$$$
>  <biosequence>
VWLGFIAGL

>  <measurement>
7.04 µM

$$$$
>  <biosequence>
FYLCFLAFLL

>  <measurement>
6.76e-05 µM

$$$$
>  <biosequence>
ELADTSLSGY

>  <measurement>
≥ 70 µM

$$$$
>  <biosequence>
VTYNCCDDDY

>  <measurement>
≥ 70 µM

$$$$
>  <biosequence>
DPAKAYKDY

>  <measurement>
≥ 77.8 µM

$$$$
>  <biosequence>
ESASKSASVY

>  <measurement>
≥ 70 µM

$$$$
>  <biosequence>
KIEELFYSY

>  <measurement>
≥ 23.9 µM

$$$$
>  <biosequence>
TVDSSQGSEY

>  <measurement>
≥ 70 µM

$$$$
>  <biosequence>
KFADDLNQM

>  <measurement>
0.659 µM

$$$$
>  <biosequence>
KWDLIISDMY

>  <measurement>
≥ 70 µM

$$$$

###

Target: HLA-B*37:01
Assay: IEDB peptide-MHC binding, purified MHC/competitive/fluorescence; bounds were set here for any values at or beyond the usual limits of such assays
Conditions: source organism: Pan troglodytes

>  <biosequence>
RPPYSSYGY

>  <IC50>
≥ 20 µM

$$$$

###

Biological target: HLA-B*08:01
Experiment: IEDB peptide-MHC binding, purified MHC/competitive/fluorescence; filed as Kd, often an IC50 or EC50 that approximates it; bounds were set here for any values at or beyond the usual limits of such assays
Details: source organism: Influenza A virus (A/Fort Monmouth/1/1947-mouse adapted(H1N1))
pKd: −log10 of the molar value.
quantity_kind: pKd

>  <biosequence>
SYLIRALTL

>  <tested_on>
HLA-B*08:01

>  <measurement>
5.76

$$$$

###

Target: HLA-B*15:42
Assay: IEDB peptide-MHC binding, purified MHC/competitive/fluorescence; filed as Kd, often an IC50 or EC50 that approximates it; bounds were set here for any values at or beyond the usual limits of such assays
Conditions: source organism: Yersinia pestis CO92
quantity_kind: Kd (µM)

>  <biosequence>
YQLEMYHPI

>  <measurement>
15.2

$$$$

###

Target: HLA-A*02:16
Test: IEDB peptide-MHC binding, purified MHC/competitive/fluorescence; filed as Kd, often an IC50 or EC50 that approximates it; bounds were set here for any values at or beyond the usual limits of such assays
Details: source organism: Giardia lamblia ATCC 50803
pKd: −log10 of the molar value.

>  <biosequence>
DEYGPVFVE

>  <tested_on>
HLA-A*02:16

>  <pKd>
≤ 4.70

$$$$

###

Molecular target: HLA-B*51:01
Experiment: IEDB peptide-MHC binding, purified MHC/competitive/radioactivity; filed as Kd, often an IC50 or EC50 that approximates it; bounds were set here for any values at or beyond the usual limits of such assays
Conditions: source organism: Triticum aestivum

>  <biosequence>
QPFLQPQL

>  <Kd, µM>
1.11

$$$$

###

Target: HLA-B*35:01
Assay: IEDB peptide-MHC binding, purified MHC/competitive/fluorescence; bounds were set here for any values at or beyond the usual limits of such assays
Settings: source organism: Bos taurus
quantity_kind: IC50

>  <biosequence>
YMMDDLEL

>  <tested_on>
HLA-B*35:01

>  <measurement>
≥ 20 µM

$$$$

###

Molecular target: HLA-A*02:01
Test: IEDB peptide-MHC binding, purified MHC/direct/fluorescence; filed as Kd, often an IC50 or EC50 that approximates it; bounds were set here for any values at or beyond the usual limits of such assays
Conditions: source organism: Corynebacterium glutamicum

>  <biosequence>
FAAAAARTL

>  <Kd>
≥ 20 µM

$$$$

###

Biological target: HLA-B*08:01
Experiment: IEDB peptide-MHC binding, purified MHC/competitive/radioactivity; filed as Kd, often an IC50 or EC50 that approximates it; bounds were set here for any values at or beyond the usual limits of such assays
Details: source organism: Vaccinia virus Copenhagen
quantity_kind: Kd (nM)

>  <biosequence>
ELAYYNSCM

>  <quantity_kind>
Kd

>  <measurement>
346

$$$$

###

Target: HLA-A*02:12
Assay: IEDB peptide-MHC binding, purified MHC/direct/fluorescence; filed as Kd, often an IC50 or EC50 that approximates it; bounds were set here for any values at or beyond the usual limits of such assays
Conditions: source organism: Limestone Canyon virus
quantity_kind: Kd

>  <biosequence>
YKSRCYVGL

>  <measurement>
≥ 20 µM

$$$$

###

Target: HLA-A*11:01
Assay: IEDB peptide-MHC binding, purified MHC/competitive/fluorescence; filed as Kd, often an IC50 or EC50 that approximates it; bounds were set here for any values at or beyond the usual limits of such assays
Settings: source organism: Homo sapiens
quantity_kind: Kd

>  <biosequence>
TYSPALNKM

>  <tested_on>
HLA-A*11:01

>  <quantity_kind>
Kd

>  <measurement>
≥ 20 µM

$$$$

###

Biological target: HLA-B*58:01
Assay: IEDB peptide-MHC binding, purified MHC/direct/fluorescence; filed as Kd, often an IC50 or EC50 that approximates it; bounds were set here for any values at or beyond the usual limits of such assays
Details: source organism: Influenza A virus (A/quail/Hong Kong/FY298/00(H9N2))
pKd: −log10 of the molar value.
quantity_kind: pKd

>  <biosequence>
SYLIRALTL

>  <tested_on>
HLA-B*58:01

>  <measurement>
≤ 4.70

$$$$

###

Target: HLA-C*15:02
Experiment: IEDB peptide-MHC binding, purified MHC/direct/fluorescence; filed as Kd, often an IC50 or EC50 that approximates it; bounds were set here for any values at or beyond the usual limits of such assays
Conditions: source organism: Bacillus cereus G9241
pKd: −log10 of the molar value.
quantity_kind: pKd

>  <biosequence>
YYKKTFSAL

>  <quantity_kind>
pKd

>  <measurement>
≤ 4.70

$$$$

###

Molecular target: HLA-B*51:01
Experiment: IEDB peptide-MHC binding, purified MHC/competitive/fluorescence; filed as Kd, often an IC50 or EC50 that approximates it; bounds were set here for any values at or beyond the usual limits of such assays
Conditions: source organism: Vibrio vulnificus CMCP6

>  <biosequence>
WLAGFEPSE

>  <tested_on>
HLA-B*51:01

>  <Kd>
≥ 20 µM

$$$$

###

Below, each of the sequences is paired with its reported Kd value.
Molecular target: HLA-A*68:01
Assay: IEDB peptide-MHC binding, purified MHC/competitive/radioactivity; filed as Kd, often an IC50 or EC50 that approximates it; bounds were set here for any values at or beyond the usual limits of such assays
Settings: source organism: Vaccinia virus WR
quantity_kind: Kd

>  <biosequence>
DLLNSMMNR

>  <measurement>
0.0359 µM

$$$$
>  <biosequence>
GTDDEVIER

>  <measurement>
0.634 µM

$$$$
>  <biosequence>
MSHLKVALYR

>  <measurement>
0.0312 µM

$$$$
>  <biosequence>
KSGGLSSGFY

>  <measurement>
≥ 70.2 µM

$$$$
>  <biosequence>
YIWIKNLETY

>  <measurement>
0.161 µM

$$$$
>  <biosequence>
NAILHNIYR

>  <measurement>
0.000565 µM

$$$$
>  <biosequence>
NMKPNFWSR

>  <measurement>
0.208 µM

$$$$
>  <biosequence>
YTLFQQTGR

>  <measurement>
0.000384 µM

$$$$
>  <biosequence>
FMDEIDHESY

>  <measurement>
≥ 59.2 µM

$$$$
>  <biosequence>
LIVSLCPTK

>  <measurement>
0.0754 µM

$$$$
>  <biosequence>
AIFTYTGGY

>  <measurement>
8.38 µM

$$$$
>  <biosequence>
LMHPDFCKNR

>  <measurement>
8.45 µM

$$$$
>  <biosequence>
IVQLPKRGVR

>  <measurement>
19 µM

$$$$
>  <biosequence>
VLGLGLSLK

>  <measurement>
9.65 µM

$$$$
>  <biosequence>
YFISIYSRPK

>  <measurement>
0.0252 µM

$$$$
>  <biosequence>
MVDVSMMSMY

>  <measurement>
0.148 µM

$$$$
>  <biosequence>
TLNEYKQLY

>  <measurement>
1.36 µM

$$$$
>  <biosequence>
STDVNKQNK

>  <measurement>
0.29 µM

$$$$
>  <biosequence>
QMRTPLHKY

>  <measurement>
≥ 77.7 µM

$$$$
>  <biosequence>
ILSDENYLLK

>  <measurement>
2.53 µM

$$$$
>  <biosequence>
KAKWLTPFEK

>  <measurement>
11.8 µM

$$$$
>  <biosequence>
VVRDFENYVK

>  <measurement>
0.0713 µM

$$$$
>  <biosequence>
KSTELIRRVR

>  <measurement>
0.901 µM

$$$$
>  <biosequence>
NLKSLLLENK

>  <measurement>
0.137 µM

$$$$
>  <biosequence>
SFIISTLNK

>  <measurement>
0.00998 µM

$$$$
>  <biosequence>
GLSLQDYCY

>  <measurement>
≥ 29.5 µM

$$$$
>  <biosequence>
FTLNHVLALK

>  <measurement>
0.00461 µM

$$$$
>  <biosequence>
LQMAGVEVR

>  <measurement>
2.38 µM

$$$$
>  <biosequence>
AISSRVDRY

>  <measurement>
4.74 µM

$$$$
>  <biosequence>
VTSLAIKNY

>  <measurement>
12.5 µM

$$$$
>  <biosequence>
MLDTSEKYSK

>  <measurement>
4.32 µM

$$$$
>  <biosequence>
VLCVKKFYK

>  <measurement>
0.344 µM

$$$$
>  <biosequence>
FLLFLEITY

>  <measurement>
1.9 µM

$$$$
>  <biosequence>
TMKAIEKDR

>  <measurement>
0.511 µM

$$$$
>  <biosequence>
NVKHTSVSAK

>  <measurement>
0.502 µM

$$$$
>  <biosequence>
VFYRSGTETK

>  <measurement>
≥ 20.4 µM

$$$$
>  <biosequence>
KASTISWMMK

>  <measurement>
0.134 µM

$$$$
>  <biosequence>
SLFYTFAISY

>  <measurement>
1.32 µM

$$$$
>  <biosequence>
FIESSICLDY

>  <measurement>
0.964 µM

$$$$
>  <biosequence>
HIKVDHPDK

>  <measurement>
1.96 µM

$$$$
>  <biosequence>
AALDGTFQRK

>  <measurement>
8.29 µM

$$$$
>  <biosequence>
SLIKTILASY

>  <measurement>
1.73 µM

$$$$
>  <biosequence>
TSLAIKNYYR

>  <measurement>
0.0058 µM

$$$$
>  <biosequence>
IVNEHDIKY

>  <measurement>
4.46 µM

$$$$
>  <biosequence>
TTAFFNTCK

>  <measurement>
0.000947 µM

$$$$
>  <biosequence>
ISYCRAFIY

>  <measurement>
0.00135 µM

$$$$
>  <biosequence>
TLDTMDDMK

>  <measurement>
0.373 µM

$$$$
>  <biosequence>
VSENTGMGMY

>  <measurement>
≥ 36.9 µM

$$$$
>  <biosequence>
ETAKVIKLVK

>  <measurement>
0.0214 µM

$$$$
>  <biosequence>
RSIAMLKSK

>  <measurement>
0.637 µM

$$$$
>  <biosequence>
YIIRRSGCR

>  <measurement>
0.0641 µM

$$$$
>  <biosequence>
IAQYKCVTIK

>  <measurement>
5.86 µM

$$$$
>  <biosequence>
DSMDVLAEKK

>  <measurement>
0.00168 µM

$$$$
>  <biosequence>
DLIAMENLK

>  <measurement>
0.0162 µM

$$$$
>  <biosequence>
NIISRTRLY

>  <measurement>
0.879 µM

$$$$
>  <biosequence>
QTVNICIFY

>  <measurement>
0.00196 µM

$$$$
